Data provenance: patent US11352391B2

- Experimental target: recombinant hNK2R expressed in CHO cells (Homo sapiens, UniProt P21452)
- Sequence (P21452 whole entry): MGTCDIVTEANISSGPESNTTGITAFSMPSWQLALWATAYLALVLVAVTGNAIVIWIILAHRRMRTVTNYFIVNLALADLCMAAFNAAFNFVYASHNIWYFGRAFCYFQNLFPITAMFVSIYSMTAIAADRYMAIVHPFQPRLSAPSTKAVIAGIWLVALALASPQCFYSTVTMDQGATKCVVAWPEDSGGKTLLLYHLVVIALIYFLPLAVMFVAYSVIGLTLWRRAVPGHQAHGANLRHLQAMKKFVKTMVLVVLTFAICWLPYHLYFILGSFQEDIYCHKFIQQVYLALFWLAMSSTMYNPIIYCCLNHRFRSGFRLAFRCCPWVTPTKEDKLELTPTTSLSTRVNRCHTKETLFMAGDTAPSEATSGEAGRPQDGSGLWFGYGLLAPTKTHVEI
- Experiment summary: Intracellular calcium mobilization (FLIPR) in CHO-hNK2 cells
- Assay type: cell-based
- Test conditions: calcium mobilization, CHO-hNK2 cells; read-out: hNK2 EC50
Where no end group is shown, it is not given here.
Measured endpoint: pEC50
The value called pEC50 is obtained by taking minus log10 of the concentration in mol/L.

Give the value of pEC50 reported for the following: DRFVGLM-NH2 [H, Asp-Arg-Phe-Val-Gly-Leu-Met-NH2] 9.72

----------
- Experiment summary: Saline solubility of heptapeptides
- Format: physicochemical
Where a SMILES comes first, the peptide text is derived from it.
Measured endpoint: solubility

Solved entries:
[
  {
    "Compound": "CSCC[C@H](NC(=O)[C@H](CC(C)C)NC(=O)CCNC(=O)[C@@H](NC(=O)[C@H](Cc1ccccc1)NC(=O)[C@H](CCCCN)NC(=O)[C@@H](N)CC(=O)O)C(C)C)C(N)=O [Compound E, Asp-Lys-Phe-Val-(β-Ala)-Leu-Met-NH2] (HELM PEPTIDE1{D.K.F.V.[bAla].L.M.[am]}$$$$V2.0; N-terminus assumed)",
    "solubility": "< 1000 µg/mL"
  },
  {
    "Compound": "CCCC[C@H](NC(=O)[C@H](CC(C)C)NC(=O)CNC(=O)[C@@H](NC(=O)[C@H](Cc1ccccc1)NC(=O)[C@H](CCCCN)NC(=O)[C@@H](N)CC(=O)O)C(C)C)C(N)=O",
    "solubility": "< 1000 µg/mL"
  },
  {
    "Compound": "CSCC[C@H](NC(=O)[C@H](CC(C)C)N(C)C(=O)CNC(=O)[C@@H](NC(=O)[C@H](Cc1ccccc1)NC(=O)[C@H](CCCCN)NC(=O)[C@@H](N)CC(=O)O)C(C)C)C(N)=O",
    "solubility": "> 20000 µg/mL"
  },
  {
    "Compound": "CCCC[C@H](NC(=O)[C@H](CC(C)C)NC(=O)CCNC(=O)[C@@H](NC(=O)[C@H](Cc1ccccc1)NC(=O)[C@H](CCCCN)NC(=O)[C@@H](N)CC(=O)O)C(C)C)C(N)=O [Compound G, Asp-Lys-Phe-Val-(β-Ala)-Leu-Nle-NH2] (HELM PEPTIDE1{D.K.F.V.[bAla].L.[Nle].[am]}$$$$V2.0; N-terminus assumed)",
    "solubility": "< 1000 µg/mL"
  },
  {
    "Compound": "CSCC[C@H](NC(=O)[C@H](CC(C)C)NC(=O)CNC(=O)[C@@H](NC(=O)[C@H](Cc1ccccc1)NC(=O)[C@H](CCCCN)NC(=O)[C@@H](N)CC(=O)O)C(C)C)C(N)=O",
    "solubility": "< 1000 µg/mL"
  },
  {
    "Compound": "CCCC[C@H](NC(=O)[C@H](CC(C)C)N(C)C(=O)CNC(=O)[C@@H](NC(=O)[C@H](Cc1ccccc1)NC(=O)[C@H](CCCNC(=N)N)NC(=O)[C@@H](N)CC(=O)O)C(C)C)C(N)=O [Compound B, Asp-Arg-Phe-Val-Gly-(NMe-Leu)-Nle-NH2] (HELM PEPTIDE1{D.R.F.V.G.[meL].[Nle].[am]}$$$$V2.0; N-terminus assumed)",
    "solubility": "> 20000 µg/mL"
  }
]

Turning now to a further compound:
Give the value of solubility reported for the following: CSCC[C@H](NC(=O)[C@H](CC(C)C)NC(=O)CCNC(=O)[C@@H](NC(=O)[C@H](Cc1ccccc1)NC(=O)[C@H](CCCNC(=N)N)NC(=O)[C@@H](N)CC(=O)O)C(C)C)C(N)=O [I, Asp-Arg-Phe-Val-(β-Ala)-Leu-Met-NH2] (HELM PEPTIDE1{D.R.F.V.[bAla].L.M.[am]}$$$$V2.0; N-terminus assumed) < 1000 µg/mL

----------
- Experimental target: human NK2 Receptor (hNK2R) (Homo sapiens, UniProt P21452)
- Sequence (P21452 whole entry): as above
- Experiment summary: [125I]-NKA radioligand competition binding to human recombinant NK2Rs (CHO-hNK2 membranes)
- Test conditions: ratio of Kis hNK1R/hNK2R
Where a SMILES comes first, the peptide text is derived from it.
hNK2 selectivity ratio for assorted compounds

Solved entries:
[
  {
    "Compound": "CSCC[C@H](NC(=O)[C@H](CC(C)C)N(C)C(=O)CNC(=O)[C@@H](NC(=O)[C@H](Cc1ccccc1)NC(=O)[C@H](CCCCN)NC(=O)[C@@H](N)CC(=O)O)C(C)C)C(N)=O [A, Asp-Lys-Phe-Val-Gly-(NMe-Leu)-Met-NH2]",
    "Experimental target": "human NK2 Receptor (hNK2R) (Homo sapiens, UniProt P21452)",
    "Reported value": 248.89
  },
  {
    "Compound": "CCCC[C@H](NC(=O)[C@H](CC(C)C)NC(=O)CCNC(=O)[C@@H](NC(=O)[C@H](Cc1ccccc1)NC(=O)[C@H](CCCNC(=N)N)NC(=O)[C@@H](N)CC(=O)O)C(C)C)C(N)=O [K, Asp-Arg-Phe-Val-(β-Ala)-Leu-Nle-NH2] (HELM PEPTIDE1{D.R.F.V.[bAla].L.[Nle].[am]}$$$$V2.0; N-terminus assumed)",
    "Experimental target": "human NK2 Receptor (hNK2R) (Homo sapiens, UniProt P21452)",
    "Reported value": 175.59
  }
]

Turning now to a further compound:
Give the value of hNK2 selectivity ratio reported for the following: CSCC[C@H](NC(=O)[C@H](CC(C)C)NC(=O)CCNC(=O)[C@@H](NC(=O)[C@H](Cc1ccccc1)NC(=O)[C@H](CCCCN)NC(=O)[C@@H](N)CC(=O)O)C(C)C)C(N)=O [Compound E, Asp-Lys-Phe-Val-(β-Ala)-Leu-Met-NH2] (HELM PEPTIDE1{D.K.F.V.[bAla].L.M.[am]}$$$$V2.0; N-terminus assumed) 122.04

----------
- Experimental target: human NK1 Receptor (hNK1R) (Homo sapiens)
- Sequence (P25103 whole entry): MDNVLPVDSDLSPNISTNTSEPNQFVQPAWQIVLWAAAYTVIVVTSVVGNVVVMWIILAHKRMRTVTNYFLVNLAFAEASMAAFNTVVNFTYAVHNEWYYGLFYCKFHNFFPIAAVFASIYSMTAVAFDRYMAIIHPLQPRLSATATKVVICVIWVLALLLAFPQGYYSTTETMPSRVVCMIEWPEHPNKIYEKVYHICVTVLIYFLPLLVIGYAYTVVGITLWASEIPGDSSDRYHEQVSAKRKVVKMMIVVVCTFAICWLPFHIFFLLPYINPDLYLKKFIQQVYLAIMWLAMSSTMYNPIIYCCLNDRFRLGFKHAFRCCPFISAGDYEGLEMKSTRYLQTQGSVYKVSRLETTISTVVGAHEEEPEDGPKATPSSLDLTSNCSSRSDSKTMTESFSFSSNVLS
- Experiment summary: [3H]-septide radioligand competition binding to human recombinant NK1Rs (CHO-hNK1 membranes)
Where no end group is shown, it is not given here.
Measured endpoint: Ki (nM)
Give your result in nM as a bare value.

Enter Ki (test system human NK1 Receptor (hNK1R) (Homo sapiens)) for DRFVGLM-NH2 [H, Asp-Arg-Phe-Val-Gly-Leu-Met-NH2] 8.32

----------
- Experimental target: human NK1 Receptor (hNK1R) (Homo sapiens)
- Experiment summary: [3H]-septide radioligand competition binding to human recombinant NK1Rs (CHO-hNK1 membranes)
- Test conditions: displacement of 5.0 nM [3H]-septide, CHO-hNK1 membranes; read-out: hNK1 binding Ki
Where a SMILES comes first, the peptide text is derived from it.
log10 of Ki for assorted molecules
Plainly stated, the numbers are log10 of Ki given in nM.

[
  {
    "Molecule": "CCCC[C@H](NC(=O)[C@H](CC(C)C)N(C)C(=O)CNC(=O)[C@@H](NC(=O)[C@H](Cc1ccccc1)NC(=O)[C@H](CCCNC(=N)N)NC(=O)[C@@H](N)CC(=O)O)C(C)C)C(N)=O [Compound B, Asp-Arg-Phe-Val-Gly-(NMe-Leu)-Nle-NH2] (HELM PEPTIDE1{D.R.F.V.G.[meL].[Nle].[am]}$$$$V2.0; N-terminus assumed)",
    "Measured endpoint": "log10 of Ki",
    "Reported value": 2.52
  }
]

Give the value of log10 of Ki reported for the following: CCCC[C@H](NC(=O)[C@H](CC(C)C)NC(=O)CCNC(=O)[C@@H](NC(=O)[C@H](Cc1ccccc1)NC(=O)[C@H](CCCCN)NC(=O)[C@@H](N)CC(=O)O)C(C)C)C(N)=O [Compound G, Asp-Lys-Phe-Val-(β-Ala)-Leu-Nle-NH2] (HELM PEPTIDE1{D.K.F.V.[bAla].L.[Nle].[am]}$$$$V2.0; N-terminus assumed) 3.49

Give the value of log10 of Ki reported for the following: CSCC[C@H](NC(=O)[C@H](CC(C)C)N(C)C(=O)CNC(=O)[C@@H](NC(=O)[C@H](Cc1ccccc1)NC(=O)[C@H](CCCNC(=N)N)NC(=O)[C@@H](N)CC(=O)O)C(C)C)C(N)=O [C, Asp-Arg-Phe-Val-Gly-(NMe-Leu)-Met-NH2] (HELM PEPTIDE1{D.R.F.V.G.[meL].M.[am]}$$$$V2.0; N-terminus assumed) 1.32

Give the value of log10 of Ki reported for the following: CSCC[C@H](NC(=O)[C@H](CC(C)C)NC(=O)CCNC(=O)[C@@H](NC(=O)[C@H](Cc1ccccc1)NC(=O)[C@H](CCCNC(=N)N)NC(=O)[C@@H](N)CC(=O)O)C(C)C)C(N)=O [I, Asp-Arg-Phe-Val-(β-Ala)-Leu-Met-NH2] (HELM PEPTIDE1{D.R.F.V.[bAla].L.M.[am]}$$$$V2.0; N-terminus assumed) 1.98

Give the value of log10 of Ki reported for the following: CCCC[C@H](NC(=O)[C@H](CC(C)C)NC(=O)CCNC(=O)[C@@H](NC(=O)[C@H](Cc1ccccc1)NC(=O)[C@H](CCCNC(=N)N)NC(=O)[C@@H](N)CC(=O)O)C(C)C)C(N)=O [K, Asp-Arg-Phe-Val-(β-Ala)-Leu-Nle-NH2] (HELM PEPTIDE1{D.R.F.V.[bAla].L.[Nle].[am]}$$$$V2.0; N-terminus assumed) 3.08

Give the value of log10 of Ki reported for the following: CSCC[C@H](NC(=O)[C@H](CC(C)C)NC(=O)CCNC(=O)[C@@H](NC(=O)[C@H](Cc1ccccc1)NC(=O)[C@H](CCCCN)NC(=O)[C@@H](N)CC(=O)O)C(C)C)C(N)=O [Compound E, Asp-Lys-Phe-Val-(β-Ala)-Leu-Met-NH2] (HELM PEPTIDE1{D.K.F.V.[bAla].L.M.[am]}$$$$V2.0; N-terminus assumed) 2.41
